FYI, the data here is from patent US4220755A.

Field: MIC. Provide a value for each of the molecules that follow.
Test system: Staphylococcus aureus 209-P
procedure_summary: MIC, agar dilution method, pH 7.2
Assay type: cell-based
condition_label: pH 7.2; Staphylococcus aureus 209-P; read-out: Minimum inhibition concentration (MIC)
Numbers only, in µg/mL.

Would you please look over these solved cases?
1. CO[C@H]1[C@@H](O)[C@H](N)[C@@H](O[C@H]2O[C@H]([C@H](C)N)CC[C@H]2N)[C@H](O)[C@@H]1N(C)C(=O)CO ... 3.12
2. CNCC[C@H](O)CN(C)[C@H]1[C@@H](O)[C@H](O[C@H]2O[C@H]([C@H](C)N)CC[C@H]2N)[C@@H](N)[C@H](O)[C@@H]1OC ... 0.78
3. CO[C@H]1[C@@H](O)[C@H](N)[C@@H](O[C@H]2O[C@H]([C@H](C)N)CC[C@H]2N)[C@H](O)[C@@H]1N(C)CCN ... 0.78
4. CO[C@H]1[C@@H](O)[C@H](N)[C@@H](O[C@H]2O[C@H]([C@H](C)N)CC[C@H]2N)[C@H](O)[C@@H]1N(C)C[C@@H](O)CCN ... 0.4
5. CO[C@H]1[C@@H](O)[C@H](N)[C@@H](O[C@H]2O[C@H]([C@H](C)N)CC[C@H]2N)[C@H](O)[C@@H]1N(C)C(=O)CNC(N)=O [Compound 3, 4-N-hydantoylfortimicin B, reference compound] ... 3.12

In the following, a different molecule is considered.
Asked: Param readout= MIC; system= Staphylococcus aureus 209-P; entry= CO[C@H]1[C@@H](O)[C@H](N)[C@@H](O[C@H]2O[C@H]([C@H](C)N)CC[C@H]2N)[C@H](O)[C@@H]1N(C)CC(O)CCN (stereo partly shown) ; returns value.
Given back: 0.4

* * *

Assay system Shigella sonnei ATCC9290; read-out recorded as MIC.
Answers are plain numbers, in µg/mL.

Would you please look over these solved cases?
1) CO[C@H]1[C@@H](O)[C@H](N)[C@@H](O[C@H]2O[C@H]([C@H](C)N)CC[C@H]2N)[C@H](O)[C@@H]1N(C)C[C@@H](O)CCN [Compound 27] ... 3.12
2) CO[C@H]1[C@@H](O)[C@H](N)[C@@H](O[C@H]2O[C@H]([C@H](C)N)CC[C@H]2N)[C@H](O)[C@@H]1N(C)C(=O)CNC(N)=O [Compound 3, 4-N-hydantoylfortimicin B, reference compound] ... 25

Provide MIC for all items below, preserving their order.
1. CO[C@H]1[C@@H](O)[C@H](N)[C@@H](O[C@H]2O[C@H]([C@H](C)N)CC[C@H]2N)[C@H](O)[C@@H]1N(C)CC(O)CCN (stereo partly drawn) [Compound 29]
2. CO[C@H]1[C@@H](O)[C@H](N)[C@@H](O[C@H]2O[C@H]([C@H](C)N)CC[C@H]2N)[C@H](O)[C@@H]1N(C)C(=O)CO [Compound 4, 4-N-glycolylfortimicin B]

Given back:
1: 6.25; 2: 25

Asked: I have this compound here, CO[C@H]1[C@@H](O)[C@H](N)[C@@H](O[C@H]2O[C@H]([C@H](C)N)CC[C@H]2N)[C@H](O)[C@@H]1N(C)C(=O)CN [Compound 2, 4-N-glycylfortimicin B, reference compound] , and I need its recorded MIC.
Given back: 6.25
